Tested on: MS2 coat protein
Assay: apparent KD of MS2 coat protein; designed switch direction (-1 OFF switch, 1 ON switch): 1; higher = weaker reporter binding
Conditions: Eterna round: R95; input ligand: FMN 200 uM
experimental.endpoint: apparent KD of MS2 coat protein

1) GGUCCAGCCUGAGCUGGACAAAAGCAUGUACAUGAGGAUCACCCAUGUCAUGUACAAGCUUUUUGCUCGUCUAAAUG [Mat - hsa-mir-208a - 93] (puzzle: Sensor for hsa-mir-208a) | 0.802 µM
2) GGAAAACAUGAGGAUCACCCAUGUAAUAAUAUGGGAGGAUAUCAGAUUUAAUUUAAUUUAUGAGAAGGCCUAAAGG [Mat - Same State 1 - Mod of Eli - D64] (puzzle: Same State 1) | 0.085 µM
3) AAGAAUCUAUCUCAGGAUAUCAUGUCAAAGACAUGAGGAUCACCCAUGUACCAGGAAACUGGUUAUGAGAAGGGAGAUAGAUUCG [Mat - Same State 2 - Mod - D37] (puzzle: Same State 2) | 0.235 µM
4) UCCGCUAUCUAGAAGGAUAUGCGUAUAUAAACAUGAGGAUCACCCAUGUACCGGCGAAAACCGGUGCAGAAGGUUUAGCUAGUGA [Rediin] (puzzle: Same State 2) | 0.0423 µM
5) AACAAUCUAUCUGAGGAUAUCAUGAGAAUAACAUGAGGAUCACCCAUGUGCAGGAAAACUGCAUAUGAGAAGGCAGAUAGAUUGG [Mat - Same State 2 - Mod - D21] (puzzle: Same State 2) | 0.0786 µM

----------
System: MS2 coat protein
Test: apparent KD of MS2 coat protein; designed switch direction (-1 OFF switch, 1 ON switch): -1; higher = weaker reporter binding
Details: input ligand: none
experimental.endpoint: apparent KD of MS2 coat protein (nM)

1) CACCGUUACUGAGGAUAUCUUACAUGAGGAUCACCCAUGUAAUAAAUGAGAAUUUCGGAUGUAUUAGAGAAGGCAGAAAUCGGC [Ostricism 61 - Jieux - Exclusion NG 2] (Eterna round: R96, puzzle: Exclusion NG 2) | 23.9
2) GUUAGCGUAGGAUAUUAGUACAUGAACAUGAGGAUCACCCAUGUGAGGUGGGUCUUAGAUUAAGAAGGGCGAAGAA [EX5 #31] (Eterna round: R97, puzzle: Exclusion 5) | 447
3) GGAUUCCAGUGAGGAUAUCCAAAUAAAAGCCAUGGAGAAGGCACAUGAGGAUCACCCAUGUAGGGCAAUAGCAGCGACCGCUGC [Usxeer] (Eterna round: R96, puzzle: Exclusion NG 1) | 35.1
4) CACCUGAAAGGAGGAUAUCUUACAUGAGGAUCACCCAUGUAAUAAAUGAGAAUUUCGAAUGUAAUAGAGAAGGCCUGAAAAGGC [Ostracism 85 - Jieux - Exclusion NG 2] (Eterna round: R96, puzzle: Exclusion NG 2) | 34.4
5) AAGAAGAGGUGAGGAUAUCGAAGUACAGGCUGGGACUCGGACUACAUGAGGAUCACCCAUGUAUACGAGAAGGCACUUCGAUAA [Quusatrare] (Eterna round: R96, puzzle: Exclusion NG 2) | 14.7
6) UGCUACGGAGGAUAUACAUGAGGAUCACCCAUGUGAGAGAUUUAGCCGAGAGGCUAGUGUAGAAGGCCGUAGCU [jl-ex3-4.17 jl mod] (Eterna round: R97, puzzle: Exclusion 3) | 62.8
7) UUAAUUAAUUGACUGCAAGAUCAACAUGAGGAUCACCCAUGUGAGGAUAUCAGCUCGUUUAGAGCUGAGAAGGCACAAGCAGUC [ExNG3/16-A2] (Eterna round: R96, puzzle: Exclusion NG 3) | 17.6
8) GCAGCUGCUCUAGGAUAUAUUUUAGCACAUGAGGAUCACCCAUGUGGGACCACAACAGCGCAAGAAUAGAAGGAGACAGCAGUA [Eternabot solution 32] (Eterna round: R96, puzzle: Exclusion NG 2) | 129
9) CAUGUGUUAGGAUAUGCACAGAUCUCCGAAAGGAGAUCUGUGCAGAAGGAACAUGAGGAUCACCCAUGUUGAUG [Mod of Brourd 16 - Jieux - Exclusion 4] (Eterna round: R97, puzzle: Exclusion 4) | 37.3
10) CUCCAUGCCCAGGCUUAGAACAUGAGGAUCACCCAUGUAGAUCCAGAAAAUUUGCUCGUCAGGCAAUUUAUAGAUUG [Eternabot (L1) Solution 9] (Eterna round: R97, puzzle: Sensor, turn-off variant 1) | 687
11) AGAGAGUCAGGAUAUGACGAAGAGAACAUGAGGAUCACCCAUGUAGCUUCGUAAUUAUCGUCAGAAGGGACGAACU [JR_Ex5_Sub089] (Eterna round: R97, puzzle: Exclusion 5) | 14.2
12) GCAGAUGUAGUGAGGAUAUGCUCUACCUCGGUAGAGCAGAAGGCACAUGAGGAUCACCCAUGUGAUUCAUCUGC [Omei Ex4B B7] (Eterna round: R97, puzzle: Brourd's mod of Exclusion 4) | 28.6
13) CUGUACUGAGGAUAUACAUGAGGAUCACCCAUGUGUCCCAGCUAGGAAACUAGCAAAGGUAGAAGGCAGUACAG [Mat - Exclusion 3 - Eli Mod - D57] (Eterna round: R97, puzzle: Exclusion 3) | 22.6
14) AAGAGUAGAGGAUAUUGUUUAUGGCACAUGAGGAUCACCCAUGUAGCGAGAGUGGUGCCACAAGAAGGUUGCAUGA [Eternabot (L2) Solution 71] (Eterna round: R97, puzzle: Exclusion 5) | 52.5
15) CCGUCACAUGAGGAUCACCCAUGUCAGGAUAUCUCAGUGCAUCCACACGGACGCAUCAAGAGAAGGGACAAAAC [Vinxlusion 6 - Jieux - Exclusion 1] (Eterna round: R97, puzzle: Exclusion 1) | 34.8
16) UCUUGCUGGCGAGGAUAUCCUGUGCGGUUCCGGCUCGUGUCUGUUACAUGAGGAUCACCCAUGUGGGAGAAGGUGUCUGUGGCC [Design 97] (Eterna round: R96, puzzle: Exclusion NG 2) | 21.9
17) AGAGAAUAGACAGGAUAUGAGAAUAGAUAGAGCUCAGAAGGGUCACAUGAGGAUCACCCAUGUGAAGUCUUGAGGCUGCGUGGA [Prohibition 19 - Jieux - Exclusion NG 1] (Eterna round: R96, puzzle: Exclusion NG 1) | 18.3
18) UAUUUAGCAAGCAGAUCCCACAUGAGGAUCACCCAUGUUUUCUGAAUGUACAGAAUUACUGUACUUGCUCGUCUUAU [Winner reversed engineered 36] (Eterna round: R97, puzzle: Sensor, turn-off variant 1) | 82.6
